Test system: HepaRG
assay: LDH release cytotoxicity, % of total lysis control; higher = more cytotoxic
condition_summary: 0.3162278 µM; 48 h
Recorded LDH release cytotoxicity by entry

Ask | What does the record list as LDH release cytotoxicity for CNS(=O)(=O)c1cc(C(=O)N2CCC(CCN3C4CCC3CC(n3c(C)nc5ccccc53)C4)(c3cccc(F)c3)CC2)c(Cl)cc1F (stereo unspecified) ?
Reply | -1.36%

Ask | Same lookup for "O=C1c2c(O)cccc2Cc2cccc(O)c21" , please.
Reply | -1.25%

Ask | Same lookup for "CCOP(=S)(OCC)Oc1ccc([N+](=O)[O-])cc1" , please.
Reply | -2.35%

New cases:
Ask | What does the record list as LDH release cytotoxicity for CCCCCCCCCCCCc1ccccc1S(=O)(=O)O [Sodium dodecylbenzenesulfonate] ?
Reply | -2.11%

Ask | Same lookup for N#CN [Cyanamide] , please.
Reply | -1.74%

Ask | Same lookup for "Cc1nccn1-c1ccc(Sc2cccc(C3(C(N)=O)CCOCC3)c2)cc1" , please.
Reply | -2.87%

---

Tested on: HepaRG
assay: LDH release cytotoxicity, % of total lysis control; higher = more cytotoxic
condition_summary: 3.16228 µM; 48 h
quantity_name: LDH release cytotoxicity (%)
Number only, in %; omit the unit.

Ask | What does the record list as LDH release cytotoxicity for "CC(Cl)(Cl)C(=O)O" ?
Reply | -0.505

Ask | Same lookup for "CSC(C)=NOC(=O)N(C)SN(C)C(=O)ON=C(C)SC" , please.
Reply | 0.811

Ask | Same lookup for "CN(C)CCO" , please.
Reply | -1.09

---

Recorded LDH release cytotoxicity by entry
Test system: HepaRG
assay: LDH release cytotoxicity, % of total lysis control; higher = more cytotoxic
condition_summary: 100 µM; 48 h
Field note: include the unit after the figure.

Ask | What does the record list as LDH release cytotoxicity for "CC1=C(C)S(=O)(=O)CCS1(=O)=O" ?
Reply | -1.52%

Ask | Same lookup for "O=C(O)C(F)(F)C(F)(F)C(F)(F)C(F)(F)C(F)(F)C(F)(F)C(F)(F)C(F)(F)F" , please.
Reply | 27.5%

Ask | Same lookup for O=C(NC1CN2CCC1CC2)c1ccc2c(c1)OCCO2 (stereo not given) , please.
Reply | 0.204%

Ask | Same lookup for "Cc1nn(-c2cc(NS(C)(=O)=O)c(Cl)cc2Cl)c(=O)n1C(F)F" , please.
Reply | 0.713%

Ask | Same lookup for "CCCCCCCC(=O)O" , please.
Reply | 0.799%

Ask | Same lookup for "CCc1cc(SCc2sc(-c3ccc(C(F)(F)F)cc3)nc2CN2CCN(c3ccc(OC)cc3)CC2)ccc1OCC(=O)O" , please.
Reply | 84%

New cases:
Ask | What does the record list as LDH release cytotoxicity for ClC1=C(Cl)C2(Cl)C3C4OC4C(Cl)C3C1(Cl)C2(Cl)Cl (stereo not given) [Heptachlor epoxide B] ?
Reply | -0.787%

Ask | Same lookup for "Clc1ccccc1C(c1ccccc1)(c1ccccc1)n1ccnc1" , please.
Reply | 82.1%

Ask | Same lookup for C1CC2OC2CC1C1CO1 (stereo not given) [4-Vinyl-1-cyclohexene dioxide] , please.
Reply | 78.1%

Ask | Same lookup for C=C(C)C(=O)[O][Sn]([CH2]CCC)([CH2]CCC)[CH2]CCC [Tributyltin methacrylate] , please.
Reply | 59.2%

Ask | Same lookup for CCn1nc(Cc2ccccc2)cc1C1CCN(CC2CC(N(C)C(C(=O)O)C(C)C)CC2c2cccc(F)c2)CC1 (stereo not given) , please.
Reply | 9.55%

Ask | Same lookup for NC(=O)NO [Hydroxyurea] , please.
Reply | 2.82%

Ask | Same lookup for CCOP(=S)(OCC)OC(Cl)C(Cl)(Cl)Cl (stereo not given) , please.
Reply | -1.1%

Ask | Same lookup for "NC(N)=O" , please.
Reply | 1.24%

Ask | Same lookup for CCOP(=S)(Oc1cnc(C(C)(C)C)nc1)OC(C)C (stereo not given) , please.
Reply | -2.06%
